Attribution: patent US9809587B2

- Tested on: Euschistus heros (Neotropical Brown Stink Bug)
- ASSAY OVERVIEW: Euschistus heros (neotropical brown stink bug), sprayed soybean leaf
- Type: in vivo
- CONDITIONS: 120 h, application rate of 200 ppm, N-2 nymphs on soybean leaf, 5 days after infestation
READOUT: mortality at 200 ppm

A selection of reference data follows.
>>> result("CCS(=O)(=O)c1cc(-c2c(C(F)(F)F)n[nH]c2C)cnc1-c1nc2cc(C(F)(F)F)ncc2n1C")
"≥ 80%"
>>> result("CCS(=O)(=O)c1cc(-c2ccncc2C#N)cnc1-c1nc2cc(C(F)(F)F)ncc2n1C")
"≥ 80%"

Ask: What measured mortality at 200 ppm goes with `CCS(=O)(=O)c1cc(-c2ncc(C)cn2)cnc1-c1nc2cc(C(F)(F)F)ncc2n1C` ?
Result: ≥ 80%

###

- Tested on: Myzus persicae (Green Peach Aphid)
- ASSAY OVERVIEW: Myzus persicae (green peach aphid), roots of pea seedlings in test solution
- Format: in vivo
- CONDITIONS: 144 h, test rate of 24 ppm, roots of infested pea seedlings in test solution, 6 days
mortality at 24 ppm reference

>>> result("CCS(=O)(=O)c1cc(-c2cncc(C#N)c2)cnc1-c1nc2cc(C(F)(F)F)ncc2n1C [Compound P67]")
"≥ 80%"
>>> result("CCS(=O)(=O)c1cc(-c2cc(OC)ccn2)cnc1-c1nc2cc(C(F)(F)F)ncc2n1C [Compound P109]")
"≥ 80%"
>>> result("CCS(=O)(=O)c1cc(-n2cnc(C(F)(F)F)n2)cnc1-c1nc2cc(C(F)(F)F)ncc2n1C [Compound P110]")
"≥ 80%"
>>> result("CCS(=O)(=O)c1cc(-c2cncs2)cnc1-c1nc2cc(C(F)(F)F)ncc2n1C [Compound P60]")
"≥ 80%"
>>> result("CCS(=O)(=O)c1cc(-n2cccn2)cnc1-c1nc2cc(C(F)(F)F)ncc2n1C [Compound P84]")
"≥ 80%"

Ask: Return reported mortality at 24 ppm; argument: CCS(=O)(=O)c1cc(-c2ccccn2)cnc1-c1nc2cc(C(F)(F)F)ncc2n1C [Compound P18]
Result: ≥ 80%

Ask: Record: CCS(=O)(=O)c1cc(-c2ncncc2F)cnc1-c1nc2cc(C(F)(F)F)ncc2n1C [Compound P61]
Result: ≥ 80%

Ask: Another molecule to check: CCS(=O)(=O)c1cc(-c2ncc(C#N)cn2)cnc1-c1nc2cc(C(F)(F)F)ncc2n1C [Compound P111]
Result: ≥ 80%

Ask: Try the molecule CCS(=O)(=O)c1cc(-c2ncc(F)cc2F)cnc1-c1nc2cc(C(F)(F)F)ncc2n1C [Compound P35]
Result: ≥ 80%

###

- Test system: Plutella xylostella (Diamond Back Moth)
- ASSAY OVERVIEW: Plutella xylostella (diamond back moth), treated artificial diet
- Format: in vivo
- CONDITIONS: 120 h, application rate of 200 ppm, L2 larvae on artificial diet, 5 days after infestation, read-out: effect in at least one of the two categories (mortality or growth inhibition)
READOUT: percent effect (mortality or growth inhibition) at 200 ppm

Solved cases below.
>>> result("CCS(=O)(=O)c1cc(-n2ccc(C(F)(F)F)n2)ccc1-c1nc2cc(C(F)(F)F)ncc2n1C [Compound P90]")
"≥ 80%"
>>> result("CCS(=O)(=O)c1cc(-c2ccnc(F)c2)cnc1-c1nc2cc(C(F)(F)F)ncc2n1C [Compound P70]")
"≥ 80%"
>>> result("CCS(=O)(=O)c1cc(-c2ccc(C#N)nc2)cnc1-c1nc2cc(C(F)(F)F)ncc2n1C [Compound P65]")
"≥ 80%"

Ask: Which measured percent effect (mortality or growth inhibition) at 200 ppm value corresponds to CCS(=O)(=O)c1cc(-c2ccnc(Cl)n2)cnc1-c1nc2cc(C(F)(F)F)ncc2n1C [Compound P105] ?
Result: ≥ 80%

Ask: Now the compound CCS(=O)(=O)c1cc(-c2ccc(Cl)nc2)cnc1-c1nc2cc(C(F)(F)F)ncc2n1C [Compound P96]
Result: ≥ 80%

Ask: Next record, please: CCS(=O)(=O)c1cc(-n2cc(Br)cn2)cnc1-c1nc2cc(C(F)(F)F)ncc2n1C [Compound P17]
Result: ≥ 80%

Ask: Try CCS(=O)(=O)c1cc(-n2cc(C(F)(F)F)cn2)cnc1-c1nc2cc(C(F)(F)F)ncc2n1C [Compound P85] next.
Result: ≥ 80%
